Values were extracted from paper PMC6212594.

- EXPERIMENTAL TARGET: T1, AF9-YEATS Y78W (human, UniProt P42568 1-138, Y78W)
- T1 sequence: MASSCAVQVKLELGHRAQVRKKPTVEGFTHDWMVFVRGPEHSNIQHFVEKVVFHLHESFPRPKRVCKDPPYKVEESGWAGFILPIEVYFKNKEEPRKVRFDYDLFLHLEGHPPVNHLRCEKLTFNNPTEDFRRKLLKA
Where no end group is shown, it is not given here.
RESULT TYPE: pKd
// pKd here means minus log10 of the molar concentration (mol/L)

Which pKd value belongs to QTARK(Ac)STGG (peptide, UniProt P68431 6-14, looked up, histone H3, residues 5-13, K9 acetylated; source: bought: Synpeptide) [histone H3K9ac peptide (aa 5-13)] ? 5.64
